Source of measurements: patent US5902812A

# SYSTEM NAME: UniProt P05121
# Sequence (P05121 24-402): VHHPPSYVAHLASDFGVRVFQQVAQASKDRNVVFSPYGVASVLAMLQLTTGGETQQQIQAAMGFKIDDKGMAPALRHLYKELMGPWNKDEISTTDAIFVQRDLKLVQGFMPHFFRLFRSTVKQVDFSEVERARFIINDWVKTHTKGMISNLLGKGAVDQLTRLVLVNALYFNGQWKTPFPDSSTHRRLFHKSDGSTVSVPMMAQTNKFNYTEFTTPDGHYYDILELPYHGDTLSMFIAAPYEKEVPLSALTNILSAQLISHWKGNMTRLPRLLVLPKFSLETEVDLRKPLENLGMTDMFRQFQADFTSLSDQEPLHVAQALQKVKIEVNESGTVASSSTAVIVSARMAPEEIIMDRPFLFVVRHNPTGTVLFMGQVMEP
# ASSAY COMMENT: biochemical
# MEASUREMENT CONTEXT: 100 μM
Cut-off 40% on Degree of inhibition in PAI chromogenic substrate assay, inclusive. At or above means Condition met; below means Condition not met.

Below are worked cases with known answers.
CN(C)CCOc1ccc(/C=c2\[nH]c(=O)/c(=C/c3ccccc3)[nH]c2=O)cc1OCCN(C)C [Compound 1978] | Condition met
CN(C)CCOc1ccc(/C=c2\[nH]c(=O)/c(=C/c3ccccc3)[nH]c2=O)cc1 [Compound 1954] | Condition not met
CN(C)CCCN(CCCN(C)C)Cc1ccc(/C=c2\[nH]c(=O)/c(=C/c3ccccc3)[nH]c2=O)cc1 | Condition met
CN(C)CCOc1ccc(/C=c2\[nH]c(=O)/c(=C/c3ccccc3)[nH]c2=O)c(Cl)c1 | Condition met
CN(C)CCOc1ccc(/C=c2\[nH]c(=O)/c(=C/c3ccccc3)[nH]c2=O)cc1 [Compound 1924] | Condition met

Proceed to the following item.
Answer whether Degree of inhibition in PAI chromogenic substrate assay of CN(C)CCOc1ccccc1/C=c1\[nH]c(=O)/c(=C/c2ccccc2)[nH]c1=O [Compound 1946] is greater than or equal to 40%. Condition not met
